The reader will find reported IC50 values listed item by item below.
Molecular target: human ALK2 R206H (Homo sapiens, UniProt Q04771, R206H)
Sequence (Q04771 21-509 R206H): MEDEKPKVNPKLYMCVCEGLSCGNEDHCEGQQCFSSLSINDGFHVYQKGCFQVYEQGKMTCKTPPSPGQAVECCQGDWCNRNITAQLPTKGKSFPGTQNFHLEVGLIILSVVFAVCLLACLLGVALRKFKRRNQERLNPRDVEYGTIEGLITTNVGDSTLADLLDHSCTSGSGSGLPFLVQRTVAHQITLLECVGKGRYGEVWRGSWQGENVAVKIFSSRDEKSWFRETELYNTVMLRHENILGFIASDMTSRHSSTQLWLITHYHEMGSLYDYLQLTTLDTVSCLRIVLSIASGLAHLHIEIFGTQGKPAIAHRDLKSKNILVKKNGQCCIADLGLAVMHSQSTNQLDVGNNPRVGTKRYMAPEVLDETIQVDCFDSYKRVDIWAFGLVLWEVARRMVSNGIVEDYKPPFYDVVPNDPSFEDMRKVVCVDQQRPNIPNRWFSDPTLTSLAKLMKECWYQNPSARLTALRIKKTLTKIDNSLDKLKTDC
Experiment: Cell-based ALK2-R206H cell activity assay (Smad1-Ser463/Ser465 phosphorylation by AlphaLISA in HEK293-ALK2-R206H cells)
Details: phospho-Smad1 AlphaLISA, read-out: Cell Line (Cell Assay, IC50 class)

Completed entries (count: 8):
For Cc1nc(-c2[nH]c3nccc(N4CCN(C(=O)OCC(F)F)CC4)c3c2C#N)cn1C the compound record lists IC50 as ≤ 100 nM

For COC1(c2ccc(-c3cc4c(N5CCN(C(=O)OC6COC6)CC5)ccnc4[nH]3)c(C#N)c2)CCOCC1 the compound record lists IC50 as ≤ 100 nM

For Cn1cc(-c2[nH]c3nccc(N4CCN(C(=O)O[C@@H]5CCOC5)CC4)c3c2Cl)cn1 the compound record lists IC50 as 100 to 500 nM

For Cn1cc(-c2[nH]c3nccc(N4CCN(C(=O)[C@H]5CC[C@H](C#N)CC5)CC4)c3c2C#N)cn1 the compound record lists IC50 as ≤ 100 nM

For CCOC(=O)N1CCN(c2ccnc3[nH]c(-c4ccn(C)n4)cc23)CC1 the compound record lists IC50 as 100 to 500 nM

For CCOC(=O)N1CCN(c2ccnc3[nH]c(-c4ccc(C#N)cc4)cc23)CC1 the compound record lists IC50 as ≤ 100 nM

For C[S+]([O-])c1ccc(-c2cc3c(N4CCN(C(=O)C5CC5)CC4)ccnc3[nH]2)cc1 (stereo not shown) the compound record lists IC50 as 100 to 500 nM

For Cn1cnc(-c2[nH]c3nccc(N4CCN(C(=O)O[C@H]5C[C@H](F)C5)CC4)c3c2C#N)c1 the compound record lists IC50 as ≤ 100 nM

New cases:
For Cn1cc(-c2cc3c(N4CCN(C(=O)O[C@H]5C[C@H](C#N)C5)CC4)ccnc3[nH]2)cn1 the compound record lists IC50 as ≤ 100 nM

For Cn1ncc(-c2cc3c(N4CCN(C(=O)OC5COC5)CC4)ccnc3[nH]2)c1C(F)F the compound record lists IC50 as 100 to 500 nM

For Cn1cc(-c2cc3c(N4CCN(C(=O)OC5CCC5)CC4)ccnc3[nH]2)cn1 the compound record lists IC50 as ≤ 100 nM

For Cn1cc(-c2cc3c(N4CCN(C(=O)O[C@H]5C[C@H](F)C5)CC4)ccnc3[nH]2)cn1 the compound record lists IC50 as ≤ 100 nM

For CN1CCN(C(=O)COc2ccc(-c3cc4c(N5CCN(C(=O)C6CC6)CC5)ccnc4[nH]3)cc2)CC1 the compound record lists IC50 as 100 to 500 nM

For CCOC(=O)N1CCN(c2ccnc3[nH]c(-c4ccc(C5(O)CCOCC5)cc4C#N)cc23)CC1 the compound record lists IC50 as ≤ 100 nM

For CC(C)OC(=O)N1CCN(c2ccnc3[nH]c(-c4cnn(C)c4)c(Cl)c23)CC1 the compound record lists IC50 as 100 to 500 nM

For CCc1nc(-c2cc3c(N4CCN(C(=O)OC5COC5)CC4)ccnc3[nH]2)cs1 the compound record lists IC50 as ≤ 100 nM
